Assay: Plasma and brain concentrations of drugs at the end of the audiogenic seizure experiment (LC-MS)
Format: in vivo, mouse
Details: DBA/2J, mouse, brain, po, 10 mg/kg, analyte COMPOUND 1; COMPOUND 1 10 mg/kg 3 h + vehicle 1 h before stimulus, oral gavage; mean ± SEM; read-out: Brain concentration total

# COMPOUND_STRING, concentration at 3 h
data = [
    ("N#Cc1ccc(Cn2ccc(NC(=O)Cc3ccc(C4(C(F)(F)F)CC4)cc3)n2)nc1", "1450 ng/g"),
]

====

Assay: Plasma and brain concentrations of drugs at the end of the audiogenic seizure experiment (LC-MS)
Format: in vivo, mouse
Conditions: DBA/2J, mouse, brain, oral, analyte COMPOUND 1; COMPOUND 1 10 mg/kg 3 h + VPA 200 mg/kg 1 h before stimulus, oral gavage; mean ± SEM; read-out: Brain concentration total

# COMPOUND_STRING, concentration at 3 h [ng/g]
measured = [
    ("N#Cc1ccc(Cn2ccc(NC(=O)Cc3ccc(C4(C(F)(F)F)CC4)cc3)n2)nc1", 1640),
]

====

Assay: Plasma and brain concentrations of drugs at the end of the audiogenic seizure experiment (LC-MS)
Format: in vivo, mouse
Conditions: DBA/2J, mouse, plasma, oral, analyte COMPOUND 1; COMPOUND 1 30 mg/kg 3 h + LEV 3 mg/kg 1 h before stimulus, oral gavage; mean ± SEM; read-out: Plasma concentration total

# COMPOUND_STRING, concentration at 3 h / ng/mL
records = [
    ("N#Cc1ccc(Cn2ccc(NC(=O)Cc3ccc(C4(C(F)(F)F)CC4)cc3)n2)nc1", 4530),
]

====

Assay: Plasma and brain concentrations of drugs at the end of the audiogenic seizure experiment (LC-MS)
Format: in vivo, mouse
Details: DBA/2J, mouse, plasma, oral, analyte VPA; COMPOUND 1 10 mg/kg 3 h + VPA 100 mg/kg 1 h before stimulus, oral gavage; mean ± SEM; read-out: Plasma concentration total

# COMPOUND_STRING, concentration at 1 h [µg/mL]
rows = [
    ("CCCC(CCC)C(=O)O", 57.3),
]

====

Test: Plasma and brain concentrations of drugs at the end of the audiogenic seizure experiment (LC-MS)
Type: in vivo, mouse
Settings: DBA/2J, mouse, brain, oral, 200 mg/kg, analyte VPA; vehicle 3 h + VPA 200 mg/kg 1 h before stimulus, oral gavage; mean ± SEM; read-out: Brain concentration total

# COMPOUND_STRING, concentration at 1 h
rows = [
    ("CCCC(CCC)C(=O)O", "44200 ng/g"),
]

====

Test: Plasma and brain concentrations of drugs at the end of the audiogenic seizure experiment (LC-MS)
Type: in vivo, mouse
Settings: DBA/2J, mouse, brain, oral, analyte COMPOUND 1; COMPOUND 1 30 mg/kg 3 h + LEV 50 mg/kg 1 h before stimulus, oral gavage; mean ± SEM; read-out: Brain concentration total

# COMPOUND_STRING, concentration at 3 h, ng/g
rows = [
    ("N#Cc1ccc(Cn2ccc(NC(=O)Cc3ccc(C4(C(F)(F)F)CC4)cc3)n2)nc1", 4690),
]

====

Experiment: Plasma and brain concentrations of drugs at the end of the audiogenic seizure experiment (LC-MS)
Assay type: in vivo, mouse
Conditions: DBA/2J, mouse, brain, oral, analyte COMPOUND 1; COMPOUND 1 30 mg/kg 3 h + LTG 3 mg/kg 1 h before stimulus, oral gavage; mean ± SEM; read-out: Brain concentration total
MEASUREMENT_LABEL: concentration at 3 h (ng/g)

# COMPOUND_STRING, MEASUREMENT_LABEL, UNIT_SPEC, REPORTED_VALUE
measured = [
    ("N#Cc1ccc(Cn2ccc(NC(=O)Cc3ccc(C4(C(F)(F)F)CC4)cc3)n2)nc1", "concentration at 3 h", "ng/g", 5030),
]

Numbers sourced from patent US11213517B2.
